Parameter Ki: see the listing below.
system tested: NK2 receptor (Homo sapiens, UniProt P21452)
Sequence (P21452 whole entry): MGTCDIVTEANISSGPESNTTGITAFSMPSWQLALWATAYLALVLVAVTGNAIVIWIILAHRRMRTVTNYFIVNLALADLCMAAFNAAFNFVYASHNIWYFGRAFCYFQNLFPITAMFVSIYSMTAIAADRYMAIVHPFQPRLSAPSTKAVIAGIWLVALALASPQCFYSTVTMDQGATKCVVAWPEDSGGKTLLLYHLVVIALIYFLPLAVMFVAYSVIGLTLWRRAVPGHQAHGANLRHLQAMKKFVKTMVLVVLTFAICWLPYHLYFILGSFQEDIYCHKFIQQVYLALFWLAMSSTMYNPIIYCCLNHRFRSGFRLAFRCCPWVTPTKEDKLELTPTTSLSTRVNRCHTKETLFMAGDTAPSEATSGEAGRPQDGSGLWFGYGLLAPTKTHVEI
measurement protocol: neurokinin receptor binding assay, NK2 (Ki)
condition set: read-out: Ki (NK2)

>  <molecule>
CN(CC(=NOCC(N)=NO)C(CCN1CCC(N2CCCCC2=O)CC1)c1ccc(Cl)c(Cl)c1)C(=O)c1cc(Cl)cc(Cl)c1 (stereo not drawn) [Example 17E]

>  <Ki [nM]>
0.7

$$$$
>  <molecule>
CON=C(CN(C)C(=O)c1cc(Cl)cc(Cl)c1)[C@H](CCN1CCC(N2CCCCC2=O)CC1)c1ccc(Cl)c(Cl)c1 [Example 13D]

>  <Ki [nM]>
0.7

$$$$
>  <molecule>
Cc1cc(C)cc(C(=O)N(C)CC(=NOCC(=O)Nc2nncs2)C(CCN2CCC(N3CCCC(CC(=O)N(C)C)C3=O)CC2)c2ccc(Cl)c(Cl)c2)c1 (stereo not drawn) [Example 19D]

>  <Ki [nM]>
1.4

$$$$
